- Assayed system: Nucleoside diphosphate kinase B (Homo sapiens)
- Sequence (P22392 whole entry): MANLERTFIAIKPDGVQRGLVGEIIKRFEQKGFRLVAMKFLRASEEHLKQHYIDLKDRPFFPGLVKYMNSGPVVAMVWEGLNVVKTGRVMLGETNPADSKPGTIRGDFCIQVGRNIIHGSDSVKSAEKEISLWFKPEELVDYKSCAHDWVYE
- Procedure details: Binding affinity to NM23-H2 (unknown origin) by SPR analysis
Measure name: pKd
pKd (log units): -log10 of the concentration in mol/L.

Request: State its pKd on Nucleoside diphosphate kinase B (Homo sapiens): CN(C)CCCNc1cc2nc3n(c(=O)c2cc1F)CC/C3=C\c1ccc(OCc2ccccc2)c(O)c1
Response: 4.88

Request: Quick one: CCN(CC)CCCNc1cc2nc3n(c(=O)c2cc1F)CC/C3=C\c1ccc(/C=C/c2ccccn2)cc1
Response: 4.86

Request: And CCN(CC)CCCNC(=O)c1ccc(/C=C2\CCn3c2nc2cc(NCCN4CCCC4)c(F)cc2c3=O)cc1 ?
Response: 5.12

Cited source: ChEMBL document CHEMBL4017489
